- system_tested: D4 human receptors (Homo sapiens)
- Construct: expressed in transfected cells; host or cells: CHO cells
- Sequence (P21917 whole entry): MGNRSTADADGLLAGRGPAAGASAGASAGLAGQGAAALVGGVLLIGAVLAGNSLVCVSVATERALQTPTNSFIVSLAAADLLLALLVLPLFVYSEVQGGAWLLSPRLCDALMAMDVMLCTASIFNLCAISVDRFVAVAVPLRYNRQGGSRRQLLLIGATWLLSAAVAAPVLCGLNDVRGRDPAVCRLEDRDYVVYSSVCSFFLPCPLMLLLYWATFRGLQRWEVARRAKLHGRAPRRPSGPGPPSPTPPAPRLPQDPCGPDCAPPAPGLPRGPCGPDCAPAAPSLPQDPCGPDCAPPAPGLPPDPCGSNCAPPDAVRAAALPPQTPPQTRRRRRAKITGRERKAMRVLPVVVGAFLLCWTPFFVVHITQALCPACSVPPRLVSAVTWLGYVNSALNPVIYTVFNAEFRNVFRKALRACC
- protocol_details: D4 Radioligand Receptor Binding Assay ([3H] YM-09151-2, CHO cell membranes)
- condition_notes: compound 10^−7 M, singlicate, [3H] YM-09151-2 0.15-0.25 nM
measured_quantity: inhibition at 0.1 µM (%)
# output: bare number, implied unit %

Answered examples (5):
compound	system_tested	unit_text	inhibition at 0.1 µM
O=c1n(C/C=C/CN2CCN(c3cccc(Cl)c3)CC2)c2ccccc2n1CCO [Compound 382]	D4 human receptors (Homo sapiens)	%	39
O=c1n(CCN2CCOCC2)c2ccccc2n1CCN1CCN(c2cccc(C(F)(F)F)c2)CC1 [Compound 228]	D4 human receptors (Homo sapiens)	%	33
COCCn1c(=O)n(C/C=C\CN2CC=C(c3ccccc3)CC2)c2ccccc21 [Compound 285]	D4 human receptors (Homo sapiens)	%	32
COCCn1c(=O)n(C/C=C/CN2CCN(c3cccc(Cl)c3)CC2)c2ccccc21 [Compound 297]	D4 human receptors (Homo sapiens)	%	34
CCNC(=O)OCCn1c(=O)n(C/C=C\CN2CC=C(c3ccccc3)CC2)c2ccccc21 [Compound 404]	D4 human receptors (Homo sapiens)	%	34

Recall and state the measured inhibition at 0.1 µM for O=c1n(C/C=C\CN2CCN(c3cccc(Cl)c3)CC2)c2ccccc2n1CCN1CCOCC1 [Compound 263] .
42

Supply inhibition at 0.1 µM value. Item: CCNC(=O)OCCn1c(=O)n(CCN2CCN(c3cccc(C)c3C)CC2)c2ccccc21 [Compound 215]
48

Return inhibition at 0.1 µM (reported value) for this compound: O=c1n(C/C=C\CN2CCN(c3cccc(Cl)c3)CC2)c2ccccc2n1CCO [Compound 365]
63

# credit: patent US6521623B1
